# Protocol Summary: Inhibition of Aquifex aeolicus LpxC
Assay Endpoint: pIC50
Interpret pIC50 as the negative base-10 log of the concentration measured in mol/L.

**Q:** Query: pIC50; subject: CCCCCC(=O)O[C@@H]1[C@@H](CP(C)(=O)O)CO[C@H](CO)[C@H]1O
**A:** 3.72

* * *

# Target: UDP-3-O-acyl-N-acetylglucosamine deacetylase (Pseudomonas aeruginosa (strain ATCC 15692 / PAO1 / 1C / PRS 101 / LMG12228), UniProt P47205)
# Sequence (P47205 whole entry): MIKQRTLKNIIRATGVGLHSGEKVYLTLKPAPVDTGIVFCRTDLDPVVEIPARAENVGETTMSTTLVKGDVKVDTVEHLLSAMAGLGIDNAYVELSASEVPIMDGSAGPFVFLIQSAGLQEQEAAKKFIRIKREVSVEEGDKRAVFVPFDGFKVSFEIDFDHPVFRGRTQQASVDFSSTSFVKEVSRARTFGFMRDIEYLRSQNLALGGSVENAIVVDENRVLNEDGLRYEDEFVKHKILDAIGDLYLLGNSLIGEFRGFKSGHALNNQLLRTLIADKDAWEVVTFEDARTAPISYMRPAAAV
# Protocol Summary: Inhibition of Pseudomonas aeruginosa LpxC
Assay Endpoint: IC50

**Q:** Query: IC50; subject: O=C(NO)C1(NCc2ccc(-c3ccc(Cl)cc3F)c(F)c2)CCS(=O)(=O)CC1
**A:** 0.2 nM
